# tested-system: recombinant human SOS1 polypeptide (amino acids 560-1049) (Homo sapiens (Human))
# experimental-details: biochemical
# Assay type: binding
# settings: HTRF displacement, Cy5 labelled tracer, Morrison equation for competitive binding; read-out: Ki, Inhibition of Labeled Tracer Binding to SOS1
pKi: −log10 of the molar value.
readout-name: pKi

1. Cc1c([C@@H](C)Nc2nnc(C)c3cnc(N4CC(O)C4)cc23)cccc1C(F)(F)F	8.91
2. Cc1c([C@@H](C)Nc2nnc(C)c3ccc(N4CC(O)C4)cc23)cccc1C(F)(F)F	8.87
3. Cc1c(C#N)cccc1[C@@H](C)Nc1nnc(C)c2cc(F)c(N3CCN(C)CC3)cc12	8.86
4. Cc1c([C@@H](C)Nc2nnc(C)c3cnc(O[C@H]4CCN(C)C4)cc23)cccc1C(F)(F)F	8.06
5. Cc1nnc(N[C@H](C)c2cc(N)cc(C(F)(F)F)n2)c2cc(N3C[C@H]4CC[C@@H]3CN4C)ncc12	8.19
6. Cc1c([C@@H](C)Nc2nnc(C)c3ccc(OC[C@@H]4CCCN4)cc23)cccc1C(F)(F)F	8.85
7. Cc1c([C@@H](C)Nc2nnc(C)c3ccc(N4CC[C@@H](N(C)C)C(F)(F)C4)cc23)cccc1C(F)(F)F	8.87

---

# tested-system: recombinant human SOS1 polypeptide (amino acids 560-1049) (Homo sapiens (Human), UniProt Q07889)
# Sequence (Q07889 560-1049): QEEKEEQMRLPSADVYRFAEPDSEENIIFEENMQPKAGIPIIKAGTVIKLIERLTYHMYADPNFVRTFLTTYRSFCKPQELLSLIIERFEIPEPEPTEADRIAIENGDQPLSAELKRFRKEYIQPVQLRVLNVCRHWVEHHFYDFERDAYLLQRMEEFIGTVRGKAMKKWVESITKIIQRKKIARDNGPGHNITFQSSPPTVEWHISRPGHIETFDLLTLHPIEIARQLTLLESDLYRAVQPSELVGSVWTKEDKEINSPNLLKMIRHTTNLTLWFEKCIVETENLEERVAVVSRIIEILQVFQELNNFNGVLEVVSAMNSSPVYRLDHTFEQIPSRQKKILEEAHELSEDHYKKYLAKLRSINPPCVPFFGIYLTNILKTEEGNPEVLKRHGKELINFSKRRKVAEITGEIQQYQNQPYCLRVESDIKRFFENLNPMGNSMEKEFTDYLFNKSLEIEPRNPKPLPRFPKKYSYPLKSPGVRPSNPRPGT
# experimental-details: biochemical
# Assay type: binding
# settings: HTRF displacement, Cy5 labelled tracer, Morrison equation for competitive binding; read-out: Ki, Inhibition of Labeled Tracer Binding to SOS1
Response field class: string, computed from recorded Ki by ranges 1 = under 1 nM, 2 = from 1 nM up to 4 nM, 3 = 4 nM and over

1) Cc1c([C@@H](C)Nc2nncc3ccc(N4CCn5cc(C(F)(F)F)nc5C4C)cc23)cccc1C(F)(F)F (stereo partly drawn) [Example 1-47]	2
2) Cc1c(C#N)cccc1[C@@H](C)Nc1nnc(C)c2cnc(N(C)C)cc12 [Example 12-45]	2
3) Cc1c(C#N)cccc1[C@@H](C)Nc1nnc(C)c2ccc(N3CCN4CCC[C@@H]4C3)cc12 [Example 10-81]	1
4) Cc1c([C@@H](C)Nc2nncc3ccc(O[C@H]4CC[C@H](N(C)C)C4)cc23)cccc1C(F)(F)F [Example 2-11]	2
5) Cc1c([C@@H](C)Nc2nnc(C)c3ccc(N4CCNCC(F)(F)C4)cc23)cccc1C(F)(F)F [Example 10-5]	1
6) Cc1c([C@@H](C)Nc2nnc(C)c3ccc(N4CCS(=O)(=O)CC4)cc23)cccc1C(F)(F)F [Example 10-23]	1
7) COc1c(C#N)cccc1[C@@H](C)Nc1nnc(C)c2cnc(N3CC(C)(O)C3)cc12 [Example 17-3]	3
8) CCN1CCN(c2cc3c(N[C@H](C)c4cccc(C(F)F)c4F)nnc(C)c3cn2)CC1 [Example 12-102]	1
9) Cc1cn2c(n1)CN(c1ccc3cnnc(N[C@H](C)c4cccc(C(F)(F)F)c4C)c3c1)CC2 [Example 1-40]	1
10) Cc1c([C@@H](C)Nc2nnc(C)c3cnc(N4CCN5CCOC[C@@H]5C4)cc23)cc(F)cc1C(F)(F)F [Example 12-112]	2
11) Cc1c([C@@H](C)Nc2nnc(C)c3ccc(N4CCN(C(=O)C5(C(F)(F)F)CC5)CC4)cc23)cccc1C(F)(F)F [Example 11-3]	1
12) Cc1c(F)cccc1[C@@H](C)Nc1nnc(C)c2cnc(N3CC4CC(C3)O4)cc12 [Example 12-126]	3
13) Cc1c(C#N)cccc1[C@@H](C)Nc1nnc(C)c2ccc(N3CCOCC3)cc12 [Example 10-51]	2
14) CCc1ccc2c(C)nnc(N[C@H](C)c3ccc(-c4ccccc4CNC)s3)c2c1 [8-2]	2
15) Cc1nnc(N[C@H](C)c2cc(F)cc(C#N)c2F)c2cc(N3CCC(C)(N(C)C)CC3)ncc12 [Example 12-123]	3
